The measurements presented in this section are drawn from paper PMC7281265.

- System name: hCA IX (Homo sapiens, UniProt Q16790)
pKi: −log10 of the molar value.
Everything with pKi lower than 7 is NOT MET; everything else, including exactly 7, is MET.

CC(C)n1c2ccc(F)cc2c2nnc(SCc3cn(-c4ccc(S(N)(=O)=O)cc4)nn3)nc21 [Compound 6i]: MET
Cn1c2ccccc2c2nnc(SCc3cn(-c4ccc(S(N)(=O)=O)cc4)nn3)nc21 [Compound 6a]: NOT MET

Can CCn1c2ccc(F)cc2c2nnc(SCc3cn(-c4ccc(S(N)(=O)=O)cc4)nn3)nc21 [Compound 6g] be said to have pKi at or above 7? NOT MET

For this compound, is measured pKi 7 or higher? C=CCn1c2ccc(Cl)cc2c2nnc(SCc3cn(-c4ccc(S(N)(=O)=O)cc4)nn3)nc21 [Compound 6o] NOT MET
